Measured values drawn from patent US20240018502A1 for this set.

# test-target: plasma purified human complement protein C3 (human) (UniProt P01024)
# Sequence (P01024 23-667, chain 1 of 2): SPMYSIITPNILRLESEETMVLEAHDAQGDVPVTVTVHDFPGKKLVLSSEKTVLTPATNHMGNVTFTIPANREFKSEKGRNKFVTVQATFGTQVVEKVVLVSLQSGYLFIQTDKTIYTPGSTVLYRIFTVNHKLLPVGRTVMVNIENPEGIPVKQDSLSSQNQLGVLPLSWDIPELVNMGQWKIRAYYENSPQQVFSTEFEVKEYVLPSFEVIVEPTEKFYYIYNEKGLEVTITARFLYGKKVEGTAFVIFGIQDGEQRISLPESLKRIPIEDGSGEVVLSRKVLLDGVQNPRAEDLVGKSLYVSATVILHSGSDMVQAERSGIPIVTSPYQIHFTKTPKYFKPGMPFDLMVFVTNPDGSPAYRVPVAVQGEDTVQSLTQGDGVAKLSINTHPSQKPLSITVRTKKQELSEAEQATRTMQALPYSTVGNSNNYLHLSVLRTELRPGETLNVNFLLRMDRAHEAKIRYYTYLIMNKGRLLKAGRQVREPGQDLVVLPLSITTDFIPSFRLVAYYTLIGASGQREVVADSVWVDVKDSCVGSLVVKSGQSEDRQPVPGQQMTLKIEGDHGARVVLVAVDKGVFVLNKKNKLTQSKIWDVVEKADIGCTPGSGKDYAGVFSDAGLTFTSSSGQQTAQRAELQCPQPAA
# Sequence (P01024 672-1663, chain 2 of 2): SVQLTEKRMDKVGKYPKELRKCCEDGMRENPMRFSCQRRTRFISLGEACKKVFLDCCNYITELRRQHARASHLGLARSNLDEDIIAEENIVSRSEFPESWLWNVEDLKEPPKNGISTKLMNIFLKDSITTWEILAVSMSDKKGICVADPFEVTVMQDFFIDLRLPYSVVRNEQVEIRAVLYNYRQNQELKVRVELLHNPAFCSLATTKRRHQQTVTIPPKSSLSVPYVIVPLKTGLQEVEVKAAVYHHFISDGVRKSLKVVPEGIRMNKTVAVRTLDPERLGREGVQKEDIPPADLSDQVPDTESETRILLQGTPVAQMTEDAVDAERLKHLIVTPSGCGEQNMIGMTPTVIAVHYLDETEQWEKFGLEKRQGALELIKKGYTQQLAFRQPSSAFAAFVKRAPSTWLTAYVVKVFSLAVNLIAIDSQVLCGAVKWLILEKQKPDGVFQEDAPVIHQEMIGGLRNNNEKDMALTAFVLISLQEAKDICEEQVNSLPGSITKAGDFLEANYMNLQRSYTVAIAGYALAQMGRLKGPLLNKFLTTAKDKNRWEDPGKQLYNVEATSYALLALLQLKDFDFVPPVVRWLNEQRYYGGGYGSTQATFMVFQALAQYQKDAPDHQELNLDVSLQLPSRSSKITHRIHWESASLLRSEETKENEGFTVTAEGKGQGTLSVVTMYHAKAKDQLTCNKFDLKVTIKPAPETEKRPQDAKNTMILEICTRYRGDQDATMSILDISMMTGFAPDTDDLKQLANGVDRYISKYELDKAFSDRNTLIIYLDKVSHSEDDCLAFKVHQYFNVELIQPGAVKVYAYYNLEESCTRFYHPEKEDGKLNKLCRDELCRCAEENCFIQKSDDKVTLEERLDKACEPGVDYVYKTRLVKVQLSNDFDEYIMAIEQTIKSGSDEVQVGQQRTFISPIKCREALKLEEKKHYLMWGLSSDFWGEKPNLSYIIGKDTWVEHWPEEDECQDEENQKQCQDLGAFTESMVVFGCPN
# test: cell-based or functional assay
measure-name: EC50 hC3 cleavage (nM)
# unit: nM | format: bare number

[[record]]
binder = "MTSP-1 protease domain I41D/F99L/C122S/G151N/Q192T/D217A (enzyme) VVGGTDADEGEWPWQVSLHALGQGHDCGASLISPNWLVSAAHCYIDDRGFRYSDPTQWTAFLGLHDQSQRSAPGVQERRLKRIISHPFFNDFTLDYDIALLELEKPAEYSSMVRPISLPDASHVFPAGKAIWVTGWGHTQYGGTNALILQKGEIRVINQTTCENLLPQQITPRMMCVGFLSGGVDSCTGDSGGPLSSVEADGRIFQAGVVSWGAGCAQRNKPGVYTRLPLFRDWIKENTGV"
measure_name = "EC50 hC3 cleavage"
meas_value = 45.1


Here is the next item to consider.
## Task Param item = MTSP-1 protease domain Q38Y/I41S/D60bT/F60eR/Y60gW/D96M/F97N/F99L/C122S/G151N/Q175L/Q192D (enzyme) VVGGTDADEGEWPWQVSLHALGYGHSCGASLISPNWLVSAAHCYIDTRGRRWSDPTQWTAFLGLHDQSQRSAPGVQERRLKRIISHPFFNMNTLDYDIALLELEKPAEYSSMVRPISLPDASHVFPAGKAIWVTGWGHTQYGGTNALILQKGEIRVINQTTCENLLPQLITPRMMCVGFLSGGVDSCDGDSGGPLSSVEADGRIFQAGVVSWGDGCAQRNKPGVYTRLPLFRDWIKENTGV ; retrieve measured EC50 hC3 cleavage.
## Result 10.8
